# Test system: U-2 OS
# TEST_NAME: cell painting activity score (Mahalanobis distance from DMSO wells); higher = stronger morphological phenotype
# TEST_CONDITIONS: 1.25 µM; 24 h
# cell painting activity score >= 6 gives Criterion met, anything below gives Criterion not met

Some solved cases for reference:
Nc1ncn([C@H]2C[C@H](O)[C@@H](CO)O2)c(=O)n1 ... Criterion met
COc1cccc2c1C(=O)c1c(O)c3c(c(O)c1C2=O)C[C@@](O)(C(=O)CO)C[C@@H]3O[C@H]1C[C@H](N)[C@H](O)[C@H](C)O1 ... Criterion met
CN(C)C/C=C/C(=O)Nc1cc2c(Nc3ccc(F)c(Cl)c3)ncnc2cc1O[C@H]1CCOC1 ... Criterion met
Nc1nc(-c2ccccc2)ns1 ... Criterion not met

q: // inclusive: cell painting activity score at least 6? input: C#CC[C@H](c1nc2cc(Cl)ccc2c(=O)n1Nc1ccccc1)N(CCCN)C(=O)c1cccc(Cl)c1F
a: Criterion not met

q: // inclusive: cell painting activity score at least 6? input: CN(N=O)C(=O)N[C@@H]1[C@@H](O)[C@H](O)[C@@H](CO)O[C@@H]1O
a: Criterion met

q: // inclusive: cell painting activity score at least 6? input: CCCCCCCc1ccc(CCc2cccc(O)c2C(=O)O)cc1
a: Criterion not met

q: // inclusive: cell painting activity score at least 6? input: O=S1(=O)CC(N2CCCC2)c2ccccc21 (stereo not drawn)
a: Criterion not met

q: // inclusive: cell painting activity score at least 6? input: CN1CCN(CCOc2cc(OC3CCOCC3)c3c(Nc4c(Cl)ccc5c4OCO5)ncnc3c2)CC1
a: Criterion met

q: // inclusive: cell painting activity score at least 6? input: COc1c(O)c2c(=O)cc3c4c5c(cc(=O)c6c(O)c(OC)c(CC(C)O)c(c(c1CC(C)O)c24)c65)OCO3 (stereo not drawn)
a: Criterion met

q: // inclusive: cell painting activity score at least 6? input: C[C@H](CC[C@@]1(O)O[C@H]2C[C@H]3[C@@H]4CC=C5C[C@@H](O[C@@H]6O[C@H](CO)[C@@H](O[C@@H]7O[C@@H](C)[C@H](O)[C@@H](O)[C@H]7O)[C@H](O)[C@H]6O[C@@H]6O[C@@H](C)[C@H](O)[C@@H](O)[C@H]6O)CC[C@]5(C)[C@H]4CC[C@]3(C)[C@H]2[C@@H]1C)CO[C@@H]1O[C@H](CO)[C@@H](O)[C@H](O)[C@H]1O
a: Criterion met

q: // inclusive: cell painting activity score at least 6? input: Cc1nc(Nc2ncc(C(=O)Nc3c(C)cccc3Cl)s2)cc(N2CCN(CCO)CC2)n1
a: Criterion met

q: // inclusive: cell painting activity score at least 6? input: CC(=O)c1c(O)c(C)c(O)c(Cc2c(O)c3c(c(C(=O)C=Cc4ccccc4)c2O)OC(C)(C)C=C3)c1O
a: Criterion not met

q: // inclusive: cell painting activity score at least 6? input: C=CC(=O)Nc1cc(Nc2nccc(-c3cn(C)c4ccccc34)n2)c(OC)cc1N(C)CCN(C)C
a: Criterion met

q: // inclusive: cell painting activity score at least 6? input: O=C1/C(=C/c2ccc(O)c(Br)c2)CCC/C1=C\c1ccc(O)c(Br)c1
a: Criterion not met

q: // inclusive: cell painting activity score at least 6? input: Cc1ccc(C(=O)N(CCCN)[C@@H](c2nc3cc(Cl)ccc3c(=O)n2Cc2ccccc2)C(C)C)cc1
a: Criterion met
